Biological target: E. coli CsgA (Escherichia coli)
Construct: made in house; host or cells: E. coli NEB 3016 slyD::kan, pET11d
Sequence (P28307 23-151): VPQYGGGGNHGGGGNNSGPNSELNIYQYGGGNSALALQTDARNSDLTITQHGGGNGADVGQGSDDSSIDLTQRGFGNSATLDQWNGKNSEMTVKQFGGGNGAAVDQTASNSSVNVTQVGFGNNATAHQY
Experiment: In vitro ThioflavinT assay of CsgA aggregation (CsgA ThT Assay)
Assay type: biochemical
Conditions: read-out: CsgA ThT Assay (10 μM CsgA) % Control AUC at 1005 minutes, 100 μM (activity range), CsgA 10 μM, black plates; compound 100 μM; 1005 minutes; class symbol
readout-label: remaining activity at 100 µM

CNC(=O)CCCCN1CC(C(=O)O)n2c(c(-c3cccc(C(F)(F)F)c3)c(Cc3cccc4ccccc34)cc2=O)S1(=O)=O (stereo not drawn) :: 11 to 31%

[in] Would you kindly share the measured remaining activity at 100 µM for Nc1c(Cc2cccc3ccccc23)c(-c2cccc(C(F)(F)F)c2)c2n(c1=O)C(C(=O)O)CS2(=O)=O (stereo not drawn) ?
[out] 31 to 60%

[in] Would you kindly repeat that for O=C(O)[C@H]1CS(=O)(=O)c2c(-c3cccc(C(F)(F)F)c3)c(Cc3cccc4ccccc34)cc(=O)n21 (single isomer, unassigned) [Compound 010b] ?
[out] 31 to 60%

[in] Further, for Nc1c(Cc2cccc3ccccc23)c(-c2cccc(C(F)(F)F)c2)c2n(c1=O)C(C(=O)O)CN(CCCCO)S2(=O)=O (stereo not drawn) ?
[out] 31 to 60%

[in] Please do the same for CCCCCN1CC(C(=O)O)n2c(c(-c3cccc(C(F)(F)F)c3)c(Cc3cccc4ccccc34)cc2=O)S1(=O)=O (single isomer, unassigned) [Compound 025a] as well.
[out] > 60%

[in] And CN1CC(C(=O)O)n2c(c(-c3cccc(C(F)(F)F)c3)c(Cc3ccc(N)c4ccccc34)cc2=O)S1(=O)=O (stereo not drawn) ?
[out] < 10%

* * *

Recorded inhibition at 100 µM by entry
Target: human α-synuclein (Homo sapiens, UniProt P37840)
Construct: the full-length gene for untagged human α-synuclein was inserted; made in house; host or cells: E. coli BL21(DE3), plasmid derived from pT7 or pET11a
Test: Cell-free Thioflavin T assay of α-synuclein aggregation (αSyn ThT Assay)
Format: biochemical
Details: αSyn 50 μM; compounds at 100 μM; class symbol; read-out: αSyn ThT Assay % Inhibition (activity range)

Worked examples, 3 molecules total:
CC(=O)Nc1ccc(Cc2cc(=O)n3c(c2-c2cccc(C(F)(F)F)c2)S(=O)(=O)N(C)CC3C(=O)O)c2ccccc12 (stereo not drawn) :: 11 to 30%
Nc1c(Cc2cccc3ccccc23)c(-c2cccc(C(F)(F)F)c2)c2scc(C(=O)O)n2c1=O :: 31 to 60%
Cn1c(=O)c2c(nc(CCCCCN3CC(C(=O)O)n4c(c(-c5cccc(C(F)(F)F)c5)c(Cc5cccc6ccccc56)cc4=O)S3(=O)=O)n2C)n(C)c1=O (stereo not drawn) :: 11 to 30%

[in] Recorded inhibition at 100 µM for CC(C)N1CC(C(=O)O)n2c(c(-c3cccc(C(F)(F)F)c3)c(Cc3cccc4ccccc34)c(NC3CCCC3)c2=O)S1(=O)=O (stereo not drawn) , please?
[out] > 60%

[in] // next record Cn1c(=O)c2c(ncn2CCCCN2CC(C(=O)O)n3c(c(-c4cccc(C(F)(F)F)c4)c(Cc4cccc5ccccc45)cc3=O)S2(=O)=O)n(C)c1=O (stereo not drawn)
[out] -10 to 10%

[in] Check O=C(O)C1n2c(c(-c3cccc(C(F)(F)F)c3)c(Cc3cccc4ccccc34)nc2=O)SC12CCCC2 (stereo not drawn) too.
[out] > 60%
